experimentDescription: amyloid nucleation score (Sup35N fusion, yeast selection) (log enrichment); library NNK2; higher = more nucleation; inactive = no reads after selection;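 further: zero at mode of non-aggregating sequences after 7 days selection at 30°C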
measureName: amyloid nucleation score
# answer = number (no unit)

In [3]: df
Out[3]:
              substance  readoutnumber
0  NVYVESSWVLARVIWRFYFD         -0.722
1  STGIGDNATFSYRISRYSVC         -0.492
2  YSGKCMEDVRGQMVGGLELV          0.405

IN: Read the entry `LVKTVDYAALPRICDVGRGQ` and write its reported amyloid nucleation score.
OUT: 3.96

IN: Identify the reported amyloid nucleation score for the following entry. `VLREDSIELWPDGTVGGRTG`
OUT: 1.35

IN: Consider the substance `TDGVLFQLVDSKFV` and give its recorded amyloid nucleation score.
OUT: -1.25

IN: Give the value of amyloid nucleation score reported for the following: `RYGRDGDRIIYNVCDFFFSG`
OUT: 6.47

IN: Please report the measured amyloid nucleation score for `VDIEDGLG`
OUT: 0.13

IN: Query amyloid nucleation score for `SLAFNPISCAANLPFFHIQF`
OUT: 0.29

IN: # return recorded amyloid nucleation score for input `YRNVPRRMYRCVGISWS`
OUT: 1.13
